Tested on: U-251
PROTOCOL: NCI tumour cell line growth inhibition, 48 h
Activity calls are given as the source filed them. Cut-off read from the data, not from the text of the source: active = GI50 up to about 1.1 µM and inactive = higher.
OBSERVATION_TYPE: GI50

Qu. What measured GI50 is associated with NC1(c2cc3ccccc3s2)CCCCCC1 on U-251?
Ans. 15.7 µM (inactive)

Qu. What measured GI50 is associated with O=C(O)C1(C(O)c2ccccc2)SCCCS1 (stereo not given) on U-251?
Ans. > 10 µM (inactive)

Qu. GET /values?readout=GI50&system=U-251&item= CCCC(=O)C1=C(O)C(Cc2c(O)c(C)c(O)c(C(=O)CCC)c2O)=C(O)C(C)(C)C1=O
Ans. 22.9 µM (inactive)

Qu. Give U-251 GI50 for CCCn1c(=O)c(N2CCN(c3ccccc3)CC2)nc2sc3ccccc3c21
Ans. > 100 µM (inactive)

Qu. Form entry - test system: U-251; read-out: GI50; compound: COC(=O)[C@H](Cc1ccccc1)NC(=O)c1ccc(CNC(=O)/C=C/c2ccc(OCc3ccccc3)cc2)cc1
Ans. 18.1 µM (inactive)

Qu. # query: GI50 | item c1ccc(-c2nnn(CCN3CCCCC3)n2)cc1 | system: U-251
Ans. > 100 µM (inactive)

Qu. Lab note: need GI50 for Clc1sc(Cl)c2c1[C@@H](Cl)C[C@@H]2Br on U-251, anyone have it?
Ans. > 100 µM (inactive)

Qu. Form: Entry = CCCCCCCCCC(=O)NCCc1c[nH]c2ccc(OC)cc12 | System = U-251 | GI50 = ____
Ans. 17 µM (inactive)

Qu. Form: Entry = O=[N+]([O-])c1cc(C(F)(F)F)ccc1S(=O)(=O)N[C@@H]1CCCC[C@H]1NS(=O)(=O)c1ccc(C(F)(F)F)cc1[N+](=O)[O-] | System = U-251 | GI50 = ____
Ans. 3.37 µM (inactive)

Qu. Lab note: need GI50 with U-251 for entry CCOC(=O)c1nc2cc(C(F)(F)F)ccc2nc1Nc1ccc(Cl)c(Cl)c1 , please look it up.
Ans. 53.6 µM (inactive)

###

Below: a set of entries, each annotated with reported GI50.
Test system: HCT-116
PROTOCOL: NCI tumour cell line growth inhibition, 48 h
The source made the active and inactive calls. No stated cut-off is given here; in the data, active = GI50 up to about 1.1 µM and inactive = higher.

{"MOLECULE": "CCOC(=O)C1(C(=O)OCC)C[C@H](C)[C@](C)(O)C1", "GI50": "> 100 µM (inactive)"}
{"MOLECULE": "CC1C(=O)C(C)C(c2cccs2)N(N=O)C1c1cccs1 (stereo not given)", "GI50": "> 100 µM (inactive)"}
{"MOLECULE": "Clc1sc(Cl)c2c1[C@@H](Cl)C[C@@H]2Br", "GI50": "> 100 µM (inactive)"}
{"MOLECULE": "COc1ccccc1C1(c2c(OC)c(=O)c2=O)SCCCS1", "GI50": "> 100 µM (inactive)"}
{"MOLECULE": "COc1c2cc([N+](=O)[O-])cc1CN(C(=O)C(F)(F)F)CCOCCN(C(=O)C(F)(F)F)C2", "GI50": "> 100 µM (inactive)"}

Qu. So what GI50 did Cc1c2cnccc2c(C)c2c1c1ccccc1n2CCOC(=O)c1ccccc1 get with HCT-116?
Ans. 5.41 µM (inactive)

Qu. Lookup: GI50 / HCT-116 / COc1ccccc1Cc1ccc(C2C=CC3(CC(=O)C=C3C)C(=O)C2)o1 (stereo not given)
Ans. 27.2 µM (inactive)

Qu. Recorded GI50 for COc1cc(C2C(C(=O)O)=C(COC(C)=O)Oc3cc4c(cc32)OCO4)cc(OC)c1OC (stereo not given) with HCT-116, please?
Ans. > 100 µM (inactive)

Qu. Request: GI50, test system HCT-116, entry CN(C(=O)Cc1ccc(Cl)c(Cl)c1)[C@@H]1CCCC[C@H]1[N+]1(C)CC=CC1
Ans. > 100 µM (inactive)

Qu. Find GI50 (HCT-116) for the entry O=C(Nc1ccc2cc3ccccc3cc2c1)c1cc2c(cc1Cl)Sc1nccn1S2(=O)=O
Ans. 3.85 µM (inactive)

###

System: NCI/ADR-RES
PROTOCOL: NCI tumour cell line growth inhibition, 48 h
The source made the active and inactive calls. Rule as the data show it: active = GI50 up to about 1.1 µM and inactive = higher.
Listing of entries alongside the reported GI50.

// solved cases for GI50 follow
{"MOLECULE": "COC(=O)[C@H](Cc1ccccc1)NC(=O)c1ccc(CNC(=O)/C=C/c2ccc(OCc3ccccc3)cc2)cc1", "EXPERIMENTAL_SYSTEM": "NCI/ADR-RES", "GI50": "30.4 µM (inactive)"}
{"MOLECULE": "O=C1Nc2ccccc2C1(O)Cc1ccccn1 (stereo not given)", "EXPERIMENTAL_SYSTEM": "NCI/ADR-RES", "GI50": "> 100 µM (inactive)"}
{"MOLECULE": "CC12OC(=O)[C@@]3(O)CCC4C(C[C@H]5O[C@]56CC=CC(=O)[C@]46C)C45OC[C@H]6C(=O)O[C@@H]1C[C@@]6(C)[C@H](C4=O)C23O5 (stereo not given in full)", "EXPERIMENTAL_SYSTEM": "NCI/ADR-RES", "GI50": "8.51 µM (inactive)"}

Consider the record given below.
Qu. Observed GI50 on NCI/ADR-RES for Cc1cc(NC(=S)SCc2ccc(F)cc2)c([N+](=O)[O-])cc1C , please.
Ans. 25.8 µM (inactive)

###

System: SF-268
PROTOCOL: NCI tumour cell line growth inhibition, 48 h
Activity calls are given as the source filed them. Cut-off read from the data, not from the text of the source: active = GI50 up to about 1.1 µM and inactive = higher.
Permitted responses: 1 (yes) = active, 0 (no) = inactive

{"COMPOUND": "Sc1nnc(SCc2ccccc2Cl)c2nc[nH]c12", "LABEL_CLASS": "0 (no)"}
{"COMPOUND": "C[C@]12CC[C@@H]3c4ccc(O)cc4CC[C@H]3[C@@H]1C/C(=C\\c1ccncc1)C2=O", "LABEL_CLASS": "0 (no)"}
{"COMPOUND": "O=C(Cc1ccccc1)NN1C(=O)C(Cl)C1c1ccc([N+](=O)[O-])cc1 (stereo unspecified)", "LABEL_CLASS": "0 (no)"}

Qu. Please let me know the test result on file for CC(=O)C=C1Nc2ccccc2N1 .
Ans. 0 (no)

Qu. Tell me the assay call for CC1(c2ccccc2)CC(c2ccccc2)=NO1 (stereo unspecified) please.
Ans. 0 (no)

Qu. Assay outcome for CCOC(=O)C1(C(=O)OCC)C[C@H](C)[C@](C)(O)C1 : what was it?
Ans. 0 (no)

Qu. // outcome(item) with item = CCCCCCCCC(O)c1ccc(/C=C\C(O)CCCC(=O)O)s1 (stereo unspecified)
Ans. 0 (no)

Qu. Per the records of this test, what outcome belongs to c1ccc(CCCC2Sc3cccc4cccc(c34)S2)cc1 ?
Ans. 0 (no)

Qu. For CC(=O)O[C@@H]1[C@H]2[C@@H](OC(=O)c3ccccc3)[C@@H](C)C[C@]2(O)[C@H](OC(C)=O)[C@@]2(C)[C@@H]3C[C@@](C)(OC(C)=O)C[C@@H](OC(C)=O)[C@@]3(OC(C)=O)C[C@@]12C , which call appears in the assay record?
Ans. 0 (no)

Qu. Assay outcome for CN(C(=O)Cc1ccc(Cl)c(Cl)c1)[C@@H]1CCCC[C@H]1[N+]1(C)CC=CC1 : what was it?
Ans. 0 (no)

Qu. Hi, do you know how O=C(CSc1nnc(-c2ccc(/N=C\c3ccc(Cl)cc3)cc2)o1)Nc1ccccc1Cl came out in this test?
Ans. 0 (no)

###

Tested on: Malme-3M
PROTOCOL: NCI tumour cell line growth inhibition, 48 h
Activity calls are given as the source filed them. Rule as the data show it: active = GI50 up to about 1.1 µM and inactive = higher.
Below, each of the compounds is paired with its reported GI50 value.

Below are worked cases with known answers.
{"COMPOUND": "O=C(/C=C1\\Nc2ccccc2N=C1NC12CC3CC(CC(C3)C1)C2)c1ccc(Br)cc1", "GI50": "> 10 µM (inactive)"}
{"COMPOUND": "COc1ccc(N[C@H]([C@@H](c2ccccc2)[S+]([O-])c2ccc(C)cc2)C(F)(F)F)cc1 (some centres undefined)", "GI50": "75.2 µM (inactive)"}
{"COMPOUND": "COc1ccc(C2C(C#N)=C(S)N(C3OC(CO)C(O)C(O)C3O)C(c3ccccc3)=C2C(C)=O)cc1 (centres undefined)", "GI50": "70.6 µM (inactive)"}

Qu. Which GI50 is listed for COc1ccccc1Cc1nc(-c2ccccc2)nn(C2OC(COC(C)=O)C(OC(C)=O)C(OC(C)=O)C2OC(C)=O)c1=S (centres undefined) ?
Ans. 5.53 µM (inactive)

Qu. Requested field: GI50. Item: O=C1Nc2ccccc2C1(O)Cc1ccccn1 (centres undefined)
Ans. > 100 µM (inactive)

Qu. Suppose we examine the compound CC1=C(c2cc(C(=O)Nc3nccs3)nc(NC#N)n2)Sc2ccccc2N1 ; what GI50 value has been reported?
Ans. > 100 µM (inactive)

Qu. Look up GI50 for this compound: CNC(=O)c1ccc(C(=O)NCCCCCN(O)C(=O)CCC(=O)NCCCCCN(O)C(=O)CCC(=O)NCCCCCN(O)C(C)=O)c(O)c1O
Ans. 90.8 µM (inactive)

Qu. Given NC1CC(=O)c2cc(Br)sc21 (centres undefined) , state its recorded GI50.
Ans. > 100 µM (inactive)

Qu. Fill in: GI50 of CN1CC[C@]2(c3cccc(O)c3)CC(=O)/C(=C/c3ccc(Cl)c(Cl)c3)[C@@H]1C2 is ___
Ans. 1.45 µM (inactive)

Qu. GI50 for C[Si](C)(C)CN1C(=O)c2ccccc2C1(O)c1ccccc1 (centres undefined) ?
Ans. > 100 µM (inactive)

These entries and their values trace back to ChEMBL document CHEMBL1201862.
